Provenance of the data: patent US7265103B2

target: h5-HT transporter (Homo sapiens, UniProt P31645)
Sequence (P31645 whole entry): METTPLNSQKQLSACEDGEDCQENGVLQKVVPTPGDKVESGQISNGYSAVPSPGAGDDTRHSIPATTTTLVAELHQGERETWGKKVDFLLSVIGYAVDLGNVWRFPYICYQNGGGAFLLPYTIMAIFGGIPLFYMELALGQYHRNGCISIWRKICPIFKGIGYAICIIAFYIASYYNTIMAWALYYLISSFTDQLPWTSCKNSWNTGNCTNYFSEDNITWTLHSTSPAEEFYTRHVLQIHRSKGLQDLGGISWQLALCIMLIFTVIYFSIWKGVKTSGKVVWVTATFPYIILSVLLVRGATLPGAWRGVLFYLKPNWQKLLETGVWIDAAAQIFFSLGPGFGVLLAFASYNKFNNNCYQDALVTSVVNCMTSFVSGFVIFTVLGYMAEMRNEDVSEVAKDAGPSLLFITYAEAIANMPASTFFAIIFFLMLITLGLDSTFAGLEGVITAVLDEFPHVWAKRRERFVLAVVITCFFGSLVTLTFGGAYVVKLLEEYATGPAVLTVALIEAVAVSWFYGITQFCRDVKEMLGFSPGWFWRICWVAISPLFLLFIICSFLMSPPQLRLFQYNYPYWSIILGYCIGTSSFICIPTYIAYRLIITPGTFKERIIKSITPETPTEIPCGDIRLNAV
Measure Name: IC50 (nM)

Solved cases below.
{"columns": ["Molecule", "Readout Value"],
 "data": [
  ["CC(=Cc1ccc(F)cc1)CN1CCN(CC2ON=C3c4ccc(N(C)CCNCC5CC5)cc4OCC32)CC1 (stereo not shown) [Compound 118]", 3.16],
  ["C/C(=C\\c1cccc(F)c1)CN1CCN(CC2ON=C3c4cc5c(cc4OCC32)NCCO5)CC1 (stereo not shown) [Compound 89]", 3.98],
  ["C/C(=C\\c1ccc(F)cc1)CN1CCN(CC2ON=C3c4ccc(NS(=O)(=O)c5ccc(C)cc5)cc4OCC32)CC1 (stereo not shown) [Compound 3]", 39.8],
  ["CC(=Cc1ccc(F)cc1)CN1CCN(CC2ON=C3c4ccc(NC(C)C)cc4OCC32)CC1 (stereo not shown) [Compound 129]", 158]
]}

I: CCN(CC)CCN(C)c1ccc2c(c1)OCC1C2=NOC1CN1CCN(CC(C)=Cc2ccc(F)cc2)CC1 (stereo not shown) [Compound 25]
II: CC(=Cc1ccc(F)cc1)CN1CCN(CC2ON=C3c4ccc(N(C)CCN(C)C)cc4OCC32)CC1 (stereo not shown) [Compound 23]
III: COc1cc2c(cc1NC(C)=O)OCC1C2=NOC1CN1CCN(C/C(C)=C/c2ccccc2)CC1 (stereo not shown) [Compound 10]
Challenge: Sequence the entries by IC50, beginning with the highest number. Give the order by naming the labels one after another as requested.
Response given: III, I, II
(III: 63.1 nM, I: 7.94 nM, II: 5.01 nM)

----------
Target: hα2C receptor (Homo sapiens)
Construct: expressed in transfected cells; host or cells: CHO cells
Sequence (P18825 1-462): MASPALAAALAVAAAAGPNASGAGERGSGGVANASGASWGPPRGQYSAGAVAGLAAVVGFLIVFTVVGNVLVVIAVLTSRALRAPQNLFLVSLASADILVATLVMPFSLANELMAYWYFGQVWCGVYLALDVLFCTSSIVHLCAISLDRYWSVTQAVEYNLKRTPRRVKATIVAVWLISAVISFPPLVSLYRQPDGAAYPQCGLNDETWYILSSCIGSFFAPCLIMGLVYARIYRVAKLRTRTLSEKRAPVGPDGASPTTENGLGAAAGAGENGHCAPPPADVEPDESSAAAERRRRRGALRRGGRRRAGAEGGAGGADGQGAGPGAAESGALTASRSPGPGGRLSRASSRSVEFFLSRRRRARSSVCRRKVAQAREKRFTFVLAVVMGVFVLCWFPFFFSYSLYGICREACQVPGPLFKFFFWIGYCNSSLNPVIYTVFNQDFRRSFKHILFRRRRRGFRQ
Experiment: Radioligand binding experiment for α2C-adrenergic receptor ([3H]-raulwolscine)
Conditions: CHO cell membranes with human α2C receptor, [3H]raulwolscine 1 nM; read-out: pIC50 α2C (converted)
Measure Name: IC50 (nM)

{"columns": ["Compound", "IC50, nM"],
 "data": [
  ["C=CCN(C)CCN(C)c1ccc2c(c1)OCC1C2=NOC1CN1CCN(CC(C)=Cc2ccc(F)cc2)CC1 (stereo not shown) [Compound 121]", 100],
  ["CC(=Cc1ccc(F)cc1)CN1CCN(CC2ON=C3c4ccc(N5CCc6ccccc6C5)cc4OCC32)CC1 (stereo not shown) [Compound 73]", 5.01],
  ["CCC(CC)Nc1cc2c(cc1OC)C1=NOC(CN3CCN(CC(C)=Cc4ccc(F)cc4)CC3)C1CO2 (stereo not shown) [Compound 98]", 100],
  ["COc1cc2c(cc1NC(C)=O)OCC1C2=NOC1CN1CCN(C/C(C)=C/c2ccccc2)CC1 (stereo not shown) [Compound 10]", 1.26],
  ["CC(=O)N1CCOc2cc3c(cc21)OCC1C3=NOC1CN1CCN(C/C(C)=C/c2ccccc2)CC1 (stereo not shown) [Compound 12]", 1]
]}

a: CC(=Cc1ccccc1)CN1CCN(CC2ON=C3c4ccc(Nc5cccc(C#N)c5)cc4OCC32)CC1 (stereo not shown) [Compound 44]
b: COc1cc2c(cc1NCCN(C)C)OCC1C2=NOC1CN1CCN(CC(C)=Cc2ccc(F)cc2)CC1 (stereo not shown) [Compound 24]
Challenge: Could you tell me which of a and b has the lower IC50 reading? Respond with the label that goes with your answer.
Response given: b
(b: 1.58 nM, a: 20 nM)

----------
pIC50: −log10 of the molar value.
Observed pIC50, system h5-HT transporter (Homo sapiens, UniProt P31645).
Measure Name: pIC50

{"columns": ["Molecule", "Assay System", "pIC50"],
 "data": [
  ["C/C(=C\\c1ccccc1)CN1CCN(CC2ON=C3c4ccc(NC(=O)[C@@H]5CCCN5)cc4OCC32)CC1 (stereo partly shown)", "h5-HT transporter (Homo sapiens, UniProt P31645)", 7.60],
  ["CC(=Cc1ccc(F)cc1)CN1CCN(CC2ON=C3c4ccc(NCC5CC5)cc4OCC32)CC1 (stereo not shown)", "h5-HT transporter (Homo sapiens, UniProt P31645)", 6.90],
  ["CC(=Cc1ccc(F)cc1)CN1CCN(CC2ON=C3c4ccc(N(C)CCNCC(C)O)cc4OCC32)CC1 (stereo not shown)", "h5-HT transporter (Homo sapiens, UniProt P31645)", 8.50],
  ["CC(=Cc1ccc(F)cc1)CN1CCN(CC2ON=C3c4ccc(NCCO)cc4OCC32)CC1 (stereo not shown)", "h5-HT transporter (Homo sapiens, UniProt P31645)", 7.20]
]}

I: CC(=Cc1ccccc1)CN1CCN(CC2ON=C3c4ccc(N(C)CCO)cc4OCC32)CC1 (single isomer, unassigned)
II: COc1cc2c(cc1NCC(C)C)OCC1C2=NOC1CN1CCN(CC(C)=Cc2ccc(F)cc2)CC1 (stereo not shown)
Challenge: Could you kindly indicate whether I or II has the higher pIC50 value? Respond with the label that goes with your answer.
Response given: I

1: CC(=Cc1ccccc1)CN1CCN(CC2ON=C3c4ccc(NC(=O)C5CC5)cc4OCC32)CC1 (stereo not shown)
2: CC(=Cc1ccc(F)cc1)CN1CCN(CC2ON=C3c4ccc(N5CCNCC5)cc4OCC32)CC1 (stereo not shown)
3: COc1cc2c(cc1N1CCC1=O)OCC1C2=NOC1CN1CCN(CC(C)=Cc2ccc(F)cc2)CC1 (stereo not shown)
Challenge: Arrange the 3 entries by pIC50 so the values rise. Give the order by naming the labels one after another as requested.
Response given: 3, 1, 2
(3: 7.30, 1: 7.80, 2: 8.10)

----------
Observed pIC50, system h5-HT transporter (Homo sapiens).
pIC50: −log10 of the molar value.
Measure Name: pIC50

Solved cases below.
{"columns": ["Compound", "Assay System", "pIC50"],
 "data": [
  ["CC(=Cc1ccccc1)CN1CCN(CC2ON=C3c4ccc(NC(=O)Nc5ccccc5)cc4OCC32)CC1 (stereo not shown)", "h5-HT transporter (Homo sapiens)", 6.60],
  ["CC(=Cc1ccc(F)cc1)CN1CCN(CC2ON=C3c4ccc(N(C)CCNC5CCC5)cc4OCC32)CC1 (stereo not shown)", "h5-HT transporter (Homo sapiens)", 7.90]
]}

I: CCNc1cc2c(cc1OC)C1=NOC(CN3CCN(CC(C)=Cc4ccc(F)cc4)CC3)C1CO2 (stereo not shown)
II: CC(=Cc1ccc(F)cc1)CN1CCN(CC2ON=C3c4ccc(N5CC=CCC5)cc4OCC32)CC1 (stereo not shown)
Challenge: Could you tell me which of I and II has the lower pIC50 reading? Respond with the label that goes with your answer.
Response given: II

----------
Target: hα2A receptor (Homo sapiens, UniProt P08913)
Construct: expressed in transfected cells; host or cells: CHO cells
Sequence (P08913 1-465): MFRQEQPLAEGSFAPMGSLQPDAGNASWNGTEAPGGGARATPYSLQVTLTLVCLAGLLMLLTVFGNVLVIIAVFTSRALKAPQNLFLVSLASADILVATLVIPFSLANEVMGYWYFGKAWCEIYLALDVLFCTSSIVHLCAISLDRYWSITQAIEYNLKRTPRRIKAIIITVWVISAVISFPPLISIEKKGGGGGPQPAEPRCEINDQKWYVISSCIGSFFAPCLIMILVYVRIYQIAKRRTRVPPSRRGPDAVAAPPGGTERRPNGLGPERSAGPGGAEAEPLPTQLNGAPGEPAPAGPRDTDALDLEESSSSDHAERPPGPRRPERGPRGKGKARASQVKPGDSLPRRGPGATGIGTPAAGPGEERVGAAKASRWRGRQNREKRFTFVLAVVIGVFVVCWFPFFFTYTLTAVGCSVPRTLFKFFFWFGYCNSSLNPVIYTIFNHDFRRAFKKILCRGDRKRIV
Assay: Radioligand binding experiment for α2A-adrenergic receptor ([3H]-raulwolscine)
Conditions: CHO cell membranes with human α2A receptor, [3H]raulwolscine 1 nM; read-out: pIC50 α2A (converted)
Measure Name: IC50 (nM)

{"columns": ["Compound", "Measure Name", "Readout Value"],
 "data": [
  ["C=CC(=O)Nc1cc2c(cc1OC)C1=NOC(CN3CCN(CC(C)=Cc4ccc(F)cc4)CC3)C1CO2 (stereo not drawn) [Compound 106]", "IC50", 6.31]
]}

a: CC(=Cc1ccc(F)cc1)CN1CCN(CC2ON=C3c4ccc(N5CCN(C)CC5)cc4OCC32)CC1 (stereo not drawn) [Compound 77]
b: CC(=Cc1ccc(F)cc1)CN1CCN(CC2ON=C3c4ccc(NC(=O)OC(C)(C)C)cc4OCC32)CC1 (stereo not drawn) [Compound 58]
Challenge: Could you tell me which of a and b has the lower IC50 reading? Respond with the label that goes with your answer.
Response given: a

P: CC(=Cc1ccc(F)cc1)CN1CCN(CC2ON=C3c4ccc(N5CCN(Cc6ccccc6)CC5)cc4OCC32)CC1 (stereo not drawn) [Compound 80]
Q: COc1cc2c(cc1N(C)CCN(C)C)OCC1C2=NOC1CN1CCN(C/C(C)=C/c2ccccc2)CC1 (stereo not drawn) [Compound 11]
Challenge: Could you kindly indicate whether P or Q has the higher IC50 value? Respond with the label that goes with your answer.
Response given: P
(P: 126 nM, Q: 2 nM)
